- Tested on: 323965-272-R-J2-PDC complex spheroid viability;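 note: spheroids exposed to agents for seven days before readout; percent of DMSO vehicle control wells so 100% = untreated growth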
- assay notes: Anticancer human tumor 323965-272-R-J2-PDC patient-derived pancreatic carcinoma cell line growth inhibition [CLK]
- experimental parameters: second compound 0.1 µM; first compound 0.316 µM; hits give low values
Measured viability, T/C accompanies every entry in the list below.
Field: numeric (%). Do not append units.

molecule	viability, T/C, %
Nc1ccccc1NC(=O)c1ccc(CNC(=O)OCc2cccnc2)cc1 + CNC(=O)c1ccc(Nc2nc(OC3CCCC3)c3c(-c4ccc5nc(C)oc5c4)c[nH]c3n2)c(OC)c1	98.3
COc1cccc2c1C(=O)c1c(O)c3c(c(O)c1C2=O)CC(O)(C(=O)CO)CC3OC1CC(N)C(O)C(C)O1 (stereo not drawn) + CNC(=O)c1ccc(Nc2nc(OC3CCCC3)c3c(-c4ccc5nc(C)oc5c4)c[nH]c3n2)c(OC)c1	39.6

Returns the measured viability, T/C for the input molecule. Input: CCCS(=O)(=O)Nc1ccc(F)c(C(=O)c2c[nH]c3ncc(-c4ccc(Cl)cc4)cc23)c1F + CN1CCN(c2cc(C(=O)Nc3cc4cc(-c5cnn(C)c5)ccc4cn3)ccn2)CC1 80.1

These data points were gathered from PubChem BioAssay AID2060619.
